# System: HEK-293T
# procedureSummary: Multiplex assay against HEK293T
# Type: toxicity, cell-based
# conditionDetails: human, 12 h, 1 µM, compound concentration 1 uM, replicate 2
outcomeMeasure: Population Fragmented Nuclei (%)
# value in %; strip the unit string

// solved cases for Population Fragmented Nuclei (%) follow
| compound | readingUnit | Population Fragmented Nuclei (%) |
| --- | --- | --- |
| CCCCCCNC(=O)Nc1ccc(S(=O)(=O)Nc2ccc(CCNC[C@H](O)COc3ccc(O)cc3)cc2)cc1 | % | 6 |
| COc1cc(Nc2ncc3c(n2)-c2ccc(Cl)cc2C(c2c(F)cccc2OC)=NC3)ccc1C(=O)O | % | 7 |
| COc1ccc2[nH]c(I)c(CCNC(C)=O)c2c1 | % | 5 |
| CCn1c(-c2nc3cc(C(=O)N4CCCC(N)C4)ccc3n2C)cc2ccccc21.Cl (stereo unspecified) | % | 5 |
| Cc1cc(-c2ccc3c(c2)CC[C@H]3N2CC3(CCN(C(=O)Cc4cn5cc(C)sc5n4)CC3)C2)ncn1 | % | 8 |
| CC(C)(O)C(=O)N1CCN(c2ccc(C(F)(F)F)c(C3=C(c4c[nH]c5ccccc45)C(=O)NC3=O)c2)CC1 | % | 5 |
| Cc1c(Cc2ccc3ccccc3n2)c2cc(F)ccc2n1CC(=O)O | % | 6 |
| Cc1cc(=O)n(C)c2cc(N3C(=O)CC[C@H](NS(=O)(=O)CC(C)C)[C@H]3c3ccc(Cl)cc3)ccc12 | % | 6 |
| O=C(O)CCC/C=C\CC1C(O)CC(O)C1/C=C/C(O)COc1cccc(Cl)c1 (stereo unspecified) | % | 6 |
| COCCCN1CCC(NC(=O)c2cc(Cl)c(N)c3c2OCC3)CC1 [PRUCALOPRIDE] | % | 4 |

Note to self: Population Fragmented Nuclei (%) recorded for Cn1cc(C(=O)OCC2CCN(CCNS(C)(=O)=O)CC2)c2ccccc21 was 9
